Attribution: patent US7495104B2

Task for the reader: assign each of the following compounds its reported pIC50.
ASSAYED_TARGET: Bek (Homo sapiens)
Sequence (P21802 431-767 limits assumed): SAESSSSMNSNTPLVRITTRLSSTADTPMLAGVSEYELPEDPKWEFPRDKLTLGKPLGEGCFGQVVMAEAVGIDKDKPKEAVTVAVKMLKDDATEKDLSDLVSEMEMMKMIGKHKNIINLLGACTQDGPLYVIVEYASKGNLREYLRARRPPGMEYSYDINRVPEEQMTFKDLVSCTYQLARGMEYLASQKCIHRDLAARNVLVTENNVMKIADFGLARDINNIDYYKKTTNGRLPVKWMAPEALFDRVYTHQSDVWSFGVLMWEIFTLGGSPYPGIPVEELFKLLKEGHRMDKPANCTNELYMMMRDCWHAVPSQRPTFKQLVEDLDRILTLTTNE
PROTOCOL_DESCRIPTION: Inhibitory activity against Bek-autophosphorylation using ELISA method in OCUM-2MD3 cells
CONDITION_SUMMARY: 1 hr with compound, read-out: IC50 (concentration necessary for inhibiting 50% of Bek-phosphorylation)
By convention, pIC50 is the negative base-10 log of a molar concentration.

[in] Reported pIC50 for COc1cc2c(Oc3ccc(Nc4ccc(C(C)(C)C)cc4)cc3F)ccnc2cc1OCCCN1CCC(O)CC1 [Compound 273] : what is it?
[out] 6.79

[in] Reported pIC50 for COc1cc2nccc(Oc3ccc(NC(=O)NCCC(C)(C)C)cc3)c2cc1OCC(O)CN1CCOCC1 (centres unmarked) [Compound 225] : what is it?
[out] 7.70

[in] Reported pIC50 for COc1cc2nccc(Oc3ccc(NC(=O)NCCC(C)(C)C)cc3)c2cc1OCC(O)CN(C)C (centres unmarked) [Compound 226] : what is it?
[out] 7.55

[in] Reported pIC50 for COc1cc2nccc(Oc3ccc(NC(=O)NCCC(C)(C)C)cc3)c2cc1OCCCN(C)C [Compound 224] : what is it?
[out] 7.15

[in] Reported pIC50 for COc1cc2c(Oc3ccc(NC(=O)NCCC(C)(C)C)c(F)c3)ccnc2cc1OCCCCl [Compound 204] : what is it?
[out] 6.63

[in] Reported pIC50 for COCCNCCCOc1cc2nccc(Oc3ccc(NC(=O)NCCC(C)(C)C)cc3)c2cc1OC [Compound 271] : what is it?
[out] 7.48

[in] Reported pIC50 for COc1cc2c(Oc3ccc(Nc4ccc(C(C)(C)C)cc4)cc3)ccnc2cc1OCCN1CCOCC1 [Compound 37] : what is it?
[out] 6.46

[in] Reported pIC50 for COc1cc2c(Oc3ccc(NC(=O)NCCC(C)(C)C)cc3)ccnc2cc1OCCN(CCO)C1CCCCC1 [Compound 362] : what is it?
[out] 7.31

[in] Reported pIC50 for COc1cc2c(Oc3ccc(NC(=O)NCCC(C)(C)C)c(Cl)c3)ccnc2cc1OCCCCN [Compound 175] : what is it?
[out] 7.66

[in] Reported pIC50 for COc1cc(Oc2ccnc3cc(OC)c(OC)cc23)ccc1Nc1ccc(C(C)(C)C)cc1 [Compound 14] : what is it?
[out] 5.72

[in] Reported pIC50 for COc1cc2c(Oc3ccc(NC(=O)NCCC(C)(C)C)cc3)ccnc2cc1OCCCN1CC(C)CC(C)C1 (centres unmarked) [Compound 245] : what is it?
[out] 7.78

[in] Reported pIC50 for COc1cc2c(Oc3ccc(Nc4ccc(C(C)(C)C)cc4)cc3)ccnc2cc1OCC(O)CN1CCCCCC1 (centres unmarked) [Compound 63] : what is it?
[out] 6.61

[in] Reported pIC50 for COc1cc2c(Oc3ccc(Nc4ccc(C(C)(C)C)cc4)cc3)ccnc2cc1OCCCN1CC(C)OC(C)C1 (centres unmarked) [Compound 232] : what is it?
[out] 6.99

[in] Reported pIC50 for COc1cc2c(Oc3ccc(Nc4ccc(C(C)(C)C)cc4)cc3)ccnc2cc1OCCN(CCO)Cc1ccccc1 [Compound 365] : what is it?
[out] 5.15

[in] Reported pIC50 for COc1cc2nccc(Oc3ccc(NC(=O)NCCC(C)(C)C)cc3)c2cc1OCCCN1CCC(CO)CC1 [Compound 323] : what is it?
[out] 6.43

[in] Reported pIC50 for COc1cc2c(Oc3ccc(NC(=O)NCCC(C)(C)C)c(Cl)c3)ccnc2cc1OCC1CCN(C)CC1 [Compound 169] : what is it?
[out] 7.60

[in] Reported pIC50 for COc1cc2nccc(Oc3ccc(Nc4ccc(F)cc4)cc3)c2cc1OC [Compound 4] : what is it?
[out] 5.43

[in] Reported pIC50 for COc1cc2c(Oc3ccc(NC(=O)NCCC(C)(C)C)cc3F)ccnc2cc1OCCN1CCCCC1 [Compound 129] : what is it?
[out] 7.32

[in] Reported pIC50 for CCN(CCO)CCOc1cc2nccc(Oc3ccc(NC(=O)NCCC(C)(C)C)c(Cl)c3)c2cc1OC [Compound 342] : what is it?
[out] 7.94

[in] Reported pIC50 for COc1cc2nccc(Oc3ccc(NC(=O)NCCC(C)(C)C)cc3)c2cc1OCCN1CCOCC1 [Compound 90] : what is it?
[out] 7.90

[in] Reported pIC50 for COc1cc2c(Oc3ccc(Nc4ccc(C(C)(C)C)cc4)cc3)ccnc2cc1OCCN1C[C@@H](C)O[C@@H](C)C1 [Compound 68] : what is it?
[out] 6.61

[in] Reported pIC50 for COC(=O)COc1cc2nccc(Oc3ccc(NC(=O)NCCC(C)(C)C)cc3)c2cc1OC [Compound 215] : what is it?
[out] 6.47

[in] Reported pIC50 for COc1cc2c(Oc3ccc(NC(=O)NCCC(C)(C)C)cc3Cl)ccnc2cc1OCCCN1CCC(CCO)CC1 [Compound 316] : what is it?
[out] 7.07

[in] Reported pIC50 for COc1cc2c(Oc3ccc(NC(=O)NCCC(C)(C)C)c(Cl)c3)ccnc2cc1OCCC1CCNCC1 [Compound 202] : what is it?
[out] 7.55

[in] Reported pIC50 for COc1cc2c(Oc3ccc(Nc4ccc(C(C)(C)C)cc4)cc3)ccnc2cc1OCCCN1CCCCCC1 [Compound 54] : what is it?
[out] 6.49
